Data provenance is patent US20200131156A1.

Assay: In vivo pharmacokinetic time profile in rats (plasma and brain)
Conditions: male, Sprague Dawley, plasma; rat, SC administration, dose 10 (mg/mg), vehicle 10% HP-betaCD
Source text: Male Sprague Dawley rats or male C57 mice from SLAC Laboratory Animal Co. Ltd., Shanghai, China or SIPPR/BK Laboratory Animal Co. Ltd., Shanghai, China were used for pharmacokinetic studies. Animals were group housed during acclimation and individually housed during in-life. […]
measurement.name: Cmax (µg/mL)
Supply the numeric figure in µg/mL, leaving out any unit text.

Q) What does the data say about its Cmax? Entry: Cc1cnc(CNC(=O)c2ccn(S(=O)(=O)c3ccc(F)cc3C)c2)cn1 [Compound 90]
A) 1.37
